B1: RHOBTB2 (parent)
chain: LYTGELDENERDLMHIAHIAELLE

- Variants of: B1
- experimental.protocol: protein stability index of a GFP-peptide fusion (GPS, HEK-293T) (PSI 1-6); higher = more stable;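 further: lentivirally expressed fusions sorted by FACS into six bins by GFP to DsRed ratio, PSI derived from sequencing read proportions per bin multiplied by bin number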
- condition.details: c terminus: a fixed tail appended
measurement.name: protein stability index

    mutation         measurement_name  obs_value
 0      L13P  protein stability index       4.82
 1      L23T  protein stability index       3.99
 2      I19N  protein stability index       4.47
 3      E21D  protein stability index       2.77
 4      E21Y  protein stability index       1.76
 5      H18P  protein stability index       2.88
 6      H18R  protein stability index       2.38
 7      L22Q  protein stability index       3.74
 8      H15M  protein stability index       1.86
 9       T3N  protein stability index       2.25
10       N9V  protein stability index       1.89
11      E24G  protein stability index       2.85
12      R11K  protein stability index       2.77
13      R11M  protein stability index       1.96
14      H18D  protein stability index       2.87
15       L6V  protein stability index       2.38
16      I19E  protein stability index       4.85
17       E5P  protein stability index       2.52
18      H15A  protein stability index       1.74
19      A17H  protein stability index       3.58
20       L1P  protein stability index       2.92
21      L22R  protein stability index       3.62
22      H18W  protein stability index       2.11
23      L13G  protein stability index       3.74
24       T3Q  protein stability index       2.58
25       T3M  protein stability index       2.23
26       N9A  protein stability index       2.57
27       D7T  protein stability index       2.16
28      L13F  protein stability index       3.13
29      E24A  protein stability index       3.44
30      I16R  protein stability index       4.43
31       Y2L  protein stability index       2.37
32       T3C  protein stability index       2.31
33      L13D  protein stability index       3.12
34      L22S  protein stability index       3.66
35      A20C  protein stability index       1.31
36       L6E  protein stability index        3.4
37      R11P  protein stability index       2.67
38       E5N  protein stability index       2.23
39       E5S  protein stability index       2.54
40      H15R  protein stability index       2.42
41      A17I  protein stability index        2.1
42      A17T  protein stability index       1.82
43       L6Y  protein stability index        2.6
44       L6N  protein stability index       3.49
45      L23R  protein stability index       4.05
